The measured values listed here are drawn from ChEMBL document CHEMBL5532653.

- study target: DNMT3A2/3L complex (Homo sapiens, UniProt Q9Y6K1)
- Sequence (Q9Y6K1 whole entry, looked up, one chain of several): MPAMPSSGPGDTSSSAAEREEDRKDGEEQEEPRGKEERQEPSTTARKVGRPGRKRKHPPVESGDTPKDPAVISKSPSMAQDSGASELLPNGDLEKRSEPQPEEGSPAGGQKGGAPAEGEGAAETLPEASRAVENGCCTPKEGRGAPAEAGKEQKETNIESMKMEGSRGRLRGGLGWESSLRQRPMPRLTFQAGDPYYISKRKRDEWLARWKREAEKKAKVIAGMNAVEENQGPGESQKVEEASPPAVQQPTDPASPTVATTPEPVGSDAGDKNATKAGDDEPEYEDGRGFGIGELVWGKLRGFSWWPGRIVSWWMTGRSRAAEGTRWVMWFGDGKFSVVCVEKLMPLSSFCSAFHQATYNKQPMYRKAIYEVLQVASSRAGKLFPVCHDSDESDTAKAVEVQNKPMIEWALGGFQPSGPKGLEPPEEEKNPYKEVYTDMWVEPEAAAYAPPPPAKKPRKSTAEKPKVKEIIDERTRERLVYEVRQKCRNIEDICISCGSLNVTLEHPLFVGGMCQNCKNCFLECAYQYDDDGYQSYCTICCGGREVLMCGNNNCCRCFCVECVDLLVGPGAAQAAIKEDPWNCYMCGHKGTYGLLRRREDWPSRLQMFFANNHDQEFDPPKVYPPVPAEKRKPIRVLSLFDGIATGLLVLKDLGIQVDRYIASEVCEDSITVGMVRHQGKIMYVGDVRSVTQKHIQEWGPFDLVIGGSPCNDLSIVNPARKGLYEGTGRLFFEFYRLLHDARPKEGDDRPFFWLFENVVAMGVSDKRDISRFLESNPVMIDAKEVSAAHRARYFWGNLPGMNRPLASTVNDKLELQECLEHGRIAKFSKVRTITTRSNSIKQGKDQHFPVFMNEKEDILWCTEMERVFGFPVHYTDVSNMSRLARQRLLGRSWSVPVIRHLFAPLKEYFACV
- test method notes: Inhibition of DNMT3A/DNMT3L (unknown origin)
observation type: pIC50
pIC50 here is simply -log10 of the concentration when that concentration is written in mol/L.

What value of pIC50 has been recorded for this entry: O=C(NO)C1CCN(C[C@@H](O)COC(Cn2c3ccccc3c3ccccc32)Cn2c3ccccc3c3ccccc32)CC1 6.03

* * *

- study target: Protein deacetylase HDAC6 (Homo sapiens, UniProt Q9UBN7)
- Sequence (Q9UBN7 whole entry): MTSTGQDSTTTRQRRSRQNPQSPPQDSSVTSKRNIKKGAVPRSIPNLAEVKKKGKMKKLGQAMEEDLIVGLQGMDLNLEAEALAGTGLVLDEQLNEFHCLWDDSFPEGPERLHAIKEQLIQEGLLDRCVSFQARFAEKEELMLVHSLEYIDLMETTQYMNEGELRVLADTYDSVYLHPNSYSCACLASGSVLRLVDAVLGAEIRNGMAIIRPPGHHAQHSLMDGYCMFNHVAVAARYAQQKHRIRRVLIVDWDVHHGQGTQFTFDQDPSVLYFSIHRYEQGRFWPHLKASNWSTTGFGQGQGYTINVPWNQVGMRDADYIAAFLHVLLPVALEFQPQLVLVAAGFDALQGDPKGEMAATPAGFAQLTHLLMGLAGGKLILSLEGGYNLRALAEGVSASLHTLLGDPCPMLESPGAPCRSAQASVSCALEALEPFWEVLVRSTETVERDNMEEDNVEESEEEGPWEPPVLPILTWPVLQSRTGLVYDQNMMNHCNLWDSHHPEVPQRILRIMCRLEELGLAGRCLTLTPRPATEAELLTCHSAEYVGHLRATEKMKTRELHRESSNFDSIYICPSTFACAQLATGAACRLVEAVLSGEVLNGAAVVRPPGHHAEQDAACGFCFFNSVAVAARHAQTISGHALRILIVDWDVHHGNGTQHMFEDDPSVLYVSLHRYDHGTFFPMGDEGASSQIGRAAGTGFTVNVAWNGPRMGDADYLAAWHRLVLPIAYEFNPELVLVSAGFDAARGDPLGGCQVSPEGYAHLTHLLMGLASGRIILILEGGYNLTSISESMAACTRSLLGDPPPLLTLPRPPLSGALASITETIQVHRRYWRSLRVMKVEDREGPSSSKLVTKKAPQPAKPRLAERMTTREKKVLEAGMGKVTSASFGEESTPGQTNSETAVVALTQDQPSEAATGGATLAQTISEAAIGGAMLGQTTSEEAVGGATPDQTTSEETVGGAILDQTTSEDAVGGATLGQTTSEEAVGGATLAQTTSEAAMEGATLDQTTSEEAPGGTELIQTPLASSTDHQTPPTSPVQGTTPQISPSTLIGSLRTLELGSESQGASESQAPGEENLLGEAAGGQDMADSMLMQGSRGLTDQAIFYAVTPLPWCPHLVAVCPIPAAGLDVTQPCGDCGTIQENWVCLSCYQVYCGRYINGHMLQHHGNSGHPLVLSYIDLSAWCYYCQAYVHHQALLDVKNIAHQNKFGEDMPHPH
- test method notes: Inhibition of HDAC6 (unknown origin) using expressed in Sf9 cells using Boc-Lys(acetyI)-AMC as substrate preincubated for 1 hr followed by substrate addition and measured after 30 mins by fluorescence based analysis
observation type: IC50 (nM)
The response must be a number in nM with no trailing unit.

What value of IC50 has been recorded for this entry: Nc1ncnc2c1ncn2Cc1ccc(-c2cn(CCCCCCC(=O)NO)nn2)cc1 4.8
